measured.target: T1, human PD-1 expressed on cells (human, UniProt Q15116 25-288)
T1 construct: whole, on cells; Treated as one molecule; also called PD-1 expressing Jurkat cells; human PD-1 transfected Jurkat cells
T1 sequence (Q15116 25-288): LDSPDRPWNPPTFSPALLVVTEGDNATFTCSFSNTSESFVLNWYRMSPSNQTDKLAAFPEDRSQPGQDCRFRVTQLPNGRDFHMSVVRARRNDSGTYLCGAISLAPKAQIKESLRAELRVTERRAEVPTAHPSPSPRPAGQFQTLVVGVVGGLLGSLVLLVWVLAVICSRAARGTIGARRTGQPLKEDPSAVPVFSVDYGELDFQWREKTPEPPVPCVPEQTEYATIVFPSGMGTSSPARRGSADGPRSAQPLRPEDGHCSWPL
experiment: rank among the 16 humanized clones in competition with Alexa 488-labeled murine mAb BAP049 on PD-1-expressing 300.19 cells, second experiment
metric: Competition Binding 2nd exp. (rank)
Reply with the value as a number alone.

Recorded results for 2 binders are shown here.
INSERT INTO results (binder, reported) VALUES
  ('humanized mAb BAP049-hum12 (antibody, human IgG4 S228P, kappa, V domains shown, Human IgG4(S228P), human kappa; tested as concentrated supernatant of transiently transfected CHO cells) VH: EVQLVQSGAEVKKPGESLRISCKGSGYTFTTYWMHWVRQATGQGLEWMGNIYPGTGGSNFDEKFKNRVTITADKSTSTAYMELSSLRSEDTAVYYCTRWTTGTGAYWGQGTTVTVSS VL: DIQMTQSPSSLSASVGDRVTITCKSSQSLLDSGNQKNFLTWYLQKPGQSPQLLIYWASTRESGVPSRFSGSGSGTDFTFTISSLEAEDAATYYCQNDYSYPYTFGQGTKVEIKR', 16),
  ('humanized mAb BAP049-hum04 (antibody, human IgG4 S228P, kappa, V domains shown, Human IgG4(S228P), human kappa; tested as concentrated supernatant of transiently transfected CHO cells) VH: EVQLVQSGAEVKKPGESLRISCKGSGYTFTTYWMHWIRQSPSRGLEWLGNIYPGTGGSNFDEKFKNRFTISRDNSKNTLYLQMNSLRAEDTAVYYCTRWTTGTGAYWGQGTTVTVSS VL: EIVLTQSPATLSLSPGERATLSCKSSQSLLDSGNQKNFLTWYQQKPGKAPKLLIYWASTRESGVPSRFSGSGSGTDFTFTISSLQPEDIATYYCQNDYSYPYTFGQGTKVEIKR', 15);

Proceed to the following item.
Which value of Competition Binding 2nd exp. (rank) has been reported for humanized mAb BAP049-hum01 (antibody, human IgG4 S228P, kappa, V domains shown, Human IgG4(S228P), human kappa; tested as concentrated supernatant of transiently transfected CHO cells; also called Clone No. 01) VH: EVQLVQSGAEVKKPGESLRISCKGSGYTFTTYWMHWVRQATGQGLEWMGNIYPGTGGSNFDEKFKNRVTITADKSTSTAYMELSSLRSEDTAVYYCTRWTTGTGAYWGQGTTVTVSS VL: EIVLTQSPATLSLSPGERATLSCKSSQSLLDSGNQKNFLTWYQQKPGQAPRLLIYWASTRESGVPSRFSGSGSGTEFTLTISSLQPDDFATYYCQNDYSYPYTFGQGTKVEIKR in the records? 2
